Cited source for all entries: patent US6444617B1

System: soybean plant
Test: Test Example 4: phytotoxicity to upland crop plants, treatment after emergence
Type: in vivo
Details: dosage 5 kg/ha, sprayed after emergence, judged 14 days after treatment
Protocol: Herbicidal Effect on Upland Weeds After Emergence Polyethylene-made vats having a size of 10 cm (length)×20 cm (width)×5 cm (height) were filled with soil, sown with seeds of the following noxious upland weeds and with seeds of soybean plant and wheat as upland crop plants, and then covered with soil. […] Fourteen days after the treatment, the herbicidal effect was investigated, from which weed-killing rate was calculated in the same manner as in Test Example 1 and the results were judged. […]
recorded endpoint: Phytotoxicity So

Previously resolved entries follow.
[[record]]
compound = "CCc1ccc(Cl)c(CC)c1NC(=O)c1cc2c(nc1C(=O)NC1CCCC1)COCC2 [compound 447]"
recorded_endpoint = "Phytotoxicity So"
result = "4 (Crop-killing rate is 90-99%.)"

[[record]]
compound = "CCCNC(=O)c1nc2nn(C)cc2cc1C(=O)Nc1c(CC)ccc(Cl)c1CC [compound 1124]"
recorded_endpoint = "Phytotoxicity So"
result = "5 (Crop-killing rate is 100%.)"

[[record]]
compound = "Cc1c(Cl)cccc1NC(=O)c1cc2c(nc1C(=O)NCC(C)C)SCCC2 [compound 527]"
recorded_endpoint = "Phytotoxicity So"
result = "5 (Crop-killing rate is 100%.)"

[[record]]
compound = "CCCNC(=O)c1nc2sccc2cc1C(=O)Nc1c(CC)ccc(Cl)c1CC [compound 799]"
recorded_endpoint = "Phytotoxicity So"
result = "5 (Crop-killing rate is 100%.)"

[[record]]
compound = "CCCNC(=O)c1nc2c(cc1C(=O)Nc1c(CC)ccc(Cl)c1CC)CCCS2 [compound 510]"
recorded_endpoint = "Phytotoxicity So"
result = "4 (Crop-killing rate is 90-99%.)"


### Prompt Lookup: Phytotoxicity So / soybean plant / CCc1ccc(Cl)c(CC)c1NC(=O)c1cc2c(nc1C(=O)NC1CCCC1)SCCC2 [compound 519]
### Response 4 (Crop-killing rate is 90-99%.)

### Prompt Next compound up: CCCNC(=O)c1nc2c(cc1C(=O)Nc1cccc(Cl)c1C)CCOC2 [compound 450]
### Response 4 (Crop-killing rate is 90-99%.)

### Prompt Next compound up: CCCNC(=O)c1nc2cc(F)ccc2cc1C(=O)Nc1c(CC)ccc(Cl)c1CC [Compound No. 158]
### Response 2 (Crop-killing rate is 40-69%.)

* * *

tested on: wheat (Wh); experiment: Test Example 3: phytotoxicity to upland crop plants, treatment before emergence; type: in vivo; conditions: dosage 5 kg/ha
recorded endpoint: Phytotoxicity Wh

[[record]]
compound = "CCCNC(=O)c1nc2c(C)nn(C)c2cc1C(=O)Nc1c(CC)ccc(Cl)c1CC"
result = "5 (Crop-killing rate is 100%.)"

[[record]]
compound = "Cc1c(Cl)cccc1NC(=O)c1cc2ccoc2nc1C(=O)NC1CCCC1"
result = "5 (Crop-killing rate is 100%.)"

[[record]]
compound = "CCCNC(=O)c1cc2c(nc1C(=O)Nc1c(CC)ccc(Cl)c1CC)S(=O)(=O)CC2"
result = "5 (Crop-killing rate is 100%.)"

[[record]]
compound = "CCCNC(=O)c1nc2ccsc2cc1C(=O)Nc1c(CC)ccc(Cl)c1CC"
result = "5 (Crop-killing rate is 100%.)"

[[record]]
compound = "CCCNC(=O)c1nc2cc(OC)c(OC)cc2cc1C(=O)Nc1c(CC)ccc(Cl)c1CC"
result = "2 (Crop-killing rate is 40-69%.)"


### Prompt Lookup: Phytotoxicity Wh / wheat (Wh) / `CCNC(=O)c1nc2occc2cc1C(=O)Nc1c(CC)ccc(Cl)c1CC`
### Response 5 (Crop-killing rate is 100%.)

### Prompt Next compound up: `CCNC(=O)c1nc2ccn(OC)c2cc1C(=O)Nc1c(CC)ccc(Cl)c1CC`
### Response 5 (Crop-killing rate is 100%.)

### Prompt Next compound up: `Cc1c(Cl)cccc1NC(=O)c1cc2c(C)noc2nc1C(=O)NC1CCCC1`
### Response 5 (Crop-killing rate is 100%.)

### Prompt Next compound up: CCCNC(=O)c1cc2c(nc1C(=O)Nc1c(CC)ccc(Cl)c1CC)[S+]([O-])CC2 (centres unmarked)
### Response 5 (Crop-killing rate is 100%.)

### Prompt Next compound up: `CCc1ccc(Cl)c(CC)c1NC(=O)c1nc2ccccc2nc1C(=O)NCC(C)C`
### Response 5 (Crop-killing rate is 100%.)

### Prompt Next compound up: `CCc1ccc(Cl)c(CC)c1NC(=O)c1cc2c(nc1C(=O)NC1CCCC1)COCC2`
### Response 5 (Crop-killing rate is 100%.)

### Prompt Next compound up: `CCNC(=O)c1nc2ccc(O)cc2cc1C(=O)Nc1c(CC)ccc(Cl)c1CC`
### Response 1 (Crop-killing rate is 1-39%.)

* * *

Recorded Phytotoxicity Wh, one value per entry.
test system: wheat; assay: Test Example 4: phytotoxicity to upland crop plants, treatment after emergence; format: in vivo; details: dosage 5 kg/ha, sprayed after emergence, judged 14 days after treatment

Previously resolved entries follow.
[[record]]
molecule = "CCc1ccc(Cl)c(CC)c1NC(=O)c1nc2ccccc2nc1C(=O)NC1CCCC1"
result = "5 (Crop-killing rate is 100%.)"

[[record]]
molecule = "CCNC(=O)c1nc2ccccc2cc1C(=O)Nc1c(CC)ccc(Cl)c1CC"
result = "3 (Crop-killing rate is 70-89%.)"

[[record]]
molecule = "CCc1ccc(Cl)c(CC)c1NC(=O)c1cc2c(nc1C(=O)NC1CCCC1)SCCC2"
result = "5 (Crop-killing rate is 100%.)"

[[record]]
molecule = "CCCNC(=O)c1cc2c(nc1C(=O)Nc1c(CC)ccc(Cl)c1CC)[S+]([O-])CC2 (stereo not drawn)"
result = "5 (Crop-killing rate is 100%.)"

[[record]]
molecule = "CCNC(=O)c1nc2ccc(O)cc2cc1C(=O)Nc1c(CC)ccc(Cl)c1CC"
result = "2 (Crop-killing rate is 40-69%.)"


### Prompt Could you tell me which Phytotoxicity Wh is on file for `CCCNC(=O)c1nc2sccc2cc1C(=O)Nc1c(CC)ccc(Cl)c1CC` ?
### Response 5 (Crop-killing rate is 100%.)

### Prompt Next molecule up: `CCCNC(=O)c1nc2ncccc2cc1C(=O)Nc1cccc(Cl)c1C`
### Response 4 (Crop-killing rate is 90-99%.)

### Prompt Next molecule up: `CCCNC(=O)c1nc2c(cc1C(=O)Nc1cccc(Cl)c1C)OCCC2`
### Response 4 (Crop-killing rate is 90-99%.)

### Prompt Next molecule up: `CCCNC(=O)c1nc2ccn(OC)c2cc1C(=O)Nc1c(CC)ccc(Cl)c1CC`
### Response 5 (Crop-killing rate is 100%.)

### Prompt Next molecule up: `CCCNC(=O)c1nc2ccc(OC)cc2cc1C(=O)Nc1c(CC)ccc(Cl)c1CC`
### Response 3 (Crop-killing rate is 70-89%.)

### Prompt Next molecule up: `CCCNC(=O)c1nc2cc(F)ccc2cc1C(=O)Nc1c(CC)ccc(Cl)c1CC`
### Response 4 (Crop-killing rate is 90-99%.)

### Prompt Next molecule up: `CCc1ccc(Cl)c(CC)c1NC(=O)c1cc2cc3c(cc2nc1C(=O)NCC(C)C)OCO3`
### Response 2 (Crop-killing rate is 40-69%.)

### Prompt Next molecule up: `CCc1ccc(Cl)c(CC)c1NC(=O)c1cc2ccccc2nc1C(=O)NC(C)(C)C`
### Response 2 (Crop-killing rate is 40-69%.)

### Prompt Next molecule up: `CCCNC(=O)c1nc2c(cc1C(=O)Nc1c(CC)ccc(Cl)c1CC)CSCC2`
### Response 5 (Crop-killing rate is 100%.)

### Prompt Next molecule up: `CCCNC(=O)c1nc2c(cc1C(=O)Nc1c(CC)ccc(Cl)c1CC)CCOC2`
### Response 5 (Crop-killing rate is 100%.)

* * *

test system: soybean plant (So); assay: Test Example 3: phytotoxicity to upland crop plants, treatment before emergence; assay type: in vivo; conditions: dosage 5 kg/ha
recorded endpoint: Phytotoxicity So

Previously resolved entries follow.
[[record]]
compound = "CCCNC(=O)c1nc2cscc2cc1C(=O)Nc1c(CC)ccc(Cl)c1CC"
recorded_endpoint = "Phytotoxicity So"
result = "4 (Crop-killing rate is 90-99%.)"

[[record]]
compound = "Cc1c(Cl)cccc1NC(=O)c1cc2ccsc2nc1C(=O)NC1CCCC1"
recorded_endpoint = "Phytotoxicity So"
result = "4 (Crop-killing rate is 90-99%.)"


### Prompt Could you tell me which Phytotoxicity So is on file for `CCCNC(=O)c1nc2nn(C)cc2cc1C(=O)Nc1c(CC)ccc(Cl)c1CC` ?
### Response 5 (Crop-killing rate is 100%.)

### Prompt Next compound up: `Cc1c(Cl)cccc1NC(=O)c1cc2c(nc1C(=O)NCC(C)C)OCCC2`
### Response 3 (Crop-killing rate is 70-89%.)

### Prompt Next compound up: `CCc1ccc(Cl)c(CC)c1NC(=O)c1cc2c(nc1C(=O)NC1CCCC1)COCC2`
### Response 4 (Crop-killing rate is 90-99%.)

### Prompt Next compound up: `CCNC(=O)c1nc2sccc2cc1C(=O)Nc1c(CC)ccc(Cl)c1CC`
### Response 4 (Crop-killing rate is 90-99%.)

### Prompt Next compound up: `CCCNC(=O)c1nc2ncccc2cc1C(=O)Nc1cccc(Cl)c1C`
### Response 3 (Crop-killing rate is 70-89%.)

### Prompt Next compound up: `CCc1ccc(Cl)c(CC)c1NC(=O)c1nc2ccccc2nc1C(=O)NC1CCCC1`
### Response 5 (Crop-killing rate is 100%.)

### Prompt Next compound up: `CCCNC(=O)c1nc2c(cc1C(=O)Nc1c(CC)ccc(Cl)c1CC)OCCC2`
### Response 4 (Crop-killing rate is 90-99%.)

### Prompt Next compound up: `CCCNC(=O)c1nc2ncccc2cc1C(=O)Nc1c(CC)ccc(Cl)c1CC`
### Response 4 (Crop-killing rate is 90-99%.)
